subjectOfTest: ER (Homo sapiens, UniProt P03372)
Construct: host or cells: T47D and MCF7 human breast cancer cells
assayOverview: ER degradation activity, in-cell western blot analysis in T47D cells
Assay type: cell-based
recordedConditions: compounds 16 hours, Table A does not say whether T47D or MCF7, read-out: Potency (DC50)
assayEndpoint: DC50

In: Need DC50, item C[C@@H]1Cc2c([nH]c3ccccc23)[C@@H](c2cnc(N3CCC4(CC3)CC(CN3Cc5cc6c(cc5C3)C(=O)N(C3CCC(=O)NC3=O)C6=O)C4)nc2)N1CC(F)F (some centres unmarked)
Out: 10 to 100 nM

In: Another: O=C1CCC(N2C(=O)c3cc4c(cc3C2=O)CN(CC2CC3(CCN(C(=O)c5ccc([C@@H]6c7ccc(O)cc7CC[C@@H]6c6ccccc6)cc5)CC3)C2)C4)C(=O)N1 (some centres unmarked)
Out: > 100 nM

In: One more compound: C[C@@H]1Cc2cc(O)ccc2[C@@H](c2ccc(C(=O)N3CCC4(CCC(CN5Cc6cc7c(cc6C5)C(=O)N(C5CCC(=O)NC5=O)C7=O)CC4)CC3)cc2)N1CC(F)F (some centres unmarked)
Out: > 100 nM

In: Now this one: Cn1cc(-c2ccc3c(c2)CC[C@H](c2ccccc2)[C@@H]3c2ccc(N3CCC4(CCN(C(=O)CN5Cc6cc7c(cc6C5)C(=O)N(C5CCC(=O)NC5=O)C7=O)CC4)CC3)cc2)cn1 (some centres unmarked)
Out: > 100 nM

In: Likewise for O=C1CCC(N2C(=O)c3cc4c(cc3C2=O)CC2(C4)CN(C(=O)CN3CC(Oc4ccc([C@@H]5c6ccc(O)cc6CC[C@@H]5c5ccccc5)cc4)C3)C2)C(=O)N1 (some centres unmarked) ?
Out: > 100 nM

* * *

subjectOfTest: ER (Homo sapiens, UniProt P03372)
Construct: host or cells: T47D and MCF7 human breast cancer cells
assayOverview: ER degradation activity, in-cell western blot analysis in T47D cells
Assay type: cell-based
recordedConditions: 16 hours, Table A does not say which cell line (T47D or MCF7), read-out: Potency (DC50)
assayEndpoint: DC50

In: Could you share which DC50 value was measured for CCC(=C(c1ccc(O)cc1)c1ccc(N2CCC3(CCN(CC(=O)N4Cc5cc6c(cc5C4)C(=O)N(C4CCC(=O)NC4=O)C6=O)CC3)C2)cc1)c1ccccc1 (centres unmarked) ?
Out: 10 to 100 nM

In: Then O=C1CCC(N2C(=O)c3cc4c(cc3C2=O)CN(CC2CCC(N3CCN(c5ccc([C@@H]6c7ccc(O)cc7CC[C@@H]6c6ccccc6)cc5)CC3)CC2)C4)C(=O)N1 (some centres unmarked) ?
Out: 10 to 100 nM

In: Another molecule: O=C1CCC(N2C(=O)c3cc4c(cc3C2=O)CN(CC2CCN(C(=O)C3(F)CCN(c5ccc([C@@H]6c7ccc(O)cc7CC[C@@H]6c6ccccc6)cc5)CC3)CC2)C4)C(=O)N1 (some centres unmarked)
Out: > 100 nM

In: One more molecule: C[C@@H]1Cc2cc(O)ccc2[C@@H](c2c(F)cc(N3CCC4(CCN(C(=O)CN5Cc6cc7c(cc6C5)C(=O)N(C5CCC(=O)NC5=O)C7=O)CC4)CC3)cc2F)N1CC(F)F (some centres unmarked)
Out: < 10 nM

In: # repeat for C[C@@H]1Cc2c([nH]c3ccccc23)[C@@H](c2c(F)cc(N3CCC4(CC3)CC(C(=O)N3CCC(N5Cc6cc7c(cc6C5)C(=O)N(C5CCC(=O)NC5=O)C7)CC3)C4)cc2F)N1CC(F)F (some centres unmarked)
Out: < 10 nM

Hello, the source for this data is patent US20240190880A1, in case you need it.
